{"molecule": "CCN(CCCCC1CCN(C(c2ccccc2)c2ccccc2)CC1)C(=O)CCc1cccnc1 [Substance 68]", "melting point": "72 to 74 °C"}
{"molecule": "O=C(CCc1cccnc1)NCCCCCC1CCN(C(c2ccccc2)c2ccccc2)CC1 [Substance 101]", "melting point": "112 to 114 °C"}
{"molecule": "O=C(COc1cccnc1)NCCCCC1CCN(C(c2ccccc2)c2ccccc2)CC1 [Substance 84]", "melting point": "103 to 105 °C"}
{"molecule": "O=C(CCc1cccnc1)NCCCCNC(=O)C1CCCN(C(c2ccccc2)c2ccccc2)C1 (centres unmarked) [Substance 106]", "melting point": "159 to 161 °C"}
{"molecule": "O=C(CCc1cccnc1)NCCCCC1CCN(C(=O)c2ccccc2)CC1 [Substance 162]", "melting point": "72 to 74 °C"}
